molecular target: Protein cereblon/Histone acetyltransferase p300 (Homo sapiens, UniProt Q09472+Q96SW2); assay: PROTAC activity at CRBN/p300 in human SK-HEP1 cells assessed as induction of p300 protein degradation at 0.01 uM incubated for 24 hrs relative to control; format: cell-based
Sequence (Q09472 2-2414 limits assumed): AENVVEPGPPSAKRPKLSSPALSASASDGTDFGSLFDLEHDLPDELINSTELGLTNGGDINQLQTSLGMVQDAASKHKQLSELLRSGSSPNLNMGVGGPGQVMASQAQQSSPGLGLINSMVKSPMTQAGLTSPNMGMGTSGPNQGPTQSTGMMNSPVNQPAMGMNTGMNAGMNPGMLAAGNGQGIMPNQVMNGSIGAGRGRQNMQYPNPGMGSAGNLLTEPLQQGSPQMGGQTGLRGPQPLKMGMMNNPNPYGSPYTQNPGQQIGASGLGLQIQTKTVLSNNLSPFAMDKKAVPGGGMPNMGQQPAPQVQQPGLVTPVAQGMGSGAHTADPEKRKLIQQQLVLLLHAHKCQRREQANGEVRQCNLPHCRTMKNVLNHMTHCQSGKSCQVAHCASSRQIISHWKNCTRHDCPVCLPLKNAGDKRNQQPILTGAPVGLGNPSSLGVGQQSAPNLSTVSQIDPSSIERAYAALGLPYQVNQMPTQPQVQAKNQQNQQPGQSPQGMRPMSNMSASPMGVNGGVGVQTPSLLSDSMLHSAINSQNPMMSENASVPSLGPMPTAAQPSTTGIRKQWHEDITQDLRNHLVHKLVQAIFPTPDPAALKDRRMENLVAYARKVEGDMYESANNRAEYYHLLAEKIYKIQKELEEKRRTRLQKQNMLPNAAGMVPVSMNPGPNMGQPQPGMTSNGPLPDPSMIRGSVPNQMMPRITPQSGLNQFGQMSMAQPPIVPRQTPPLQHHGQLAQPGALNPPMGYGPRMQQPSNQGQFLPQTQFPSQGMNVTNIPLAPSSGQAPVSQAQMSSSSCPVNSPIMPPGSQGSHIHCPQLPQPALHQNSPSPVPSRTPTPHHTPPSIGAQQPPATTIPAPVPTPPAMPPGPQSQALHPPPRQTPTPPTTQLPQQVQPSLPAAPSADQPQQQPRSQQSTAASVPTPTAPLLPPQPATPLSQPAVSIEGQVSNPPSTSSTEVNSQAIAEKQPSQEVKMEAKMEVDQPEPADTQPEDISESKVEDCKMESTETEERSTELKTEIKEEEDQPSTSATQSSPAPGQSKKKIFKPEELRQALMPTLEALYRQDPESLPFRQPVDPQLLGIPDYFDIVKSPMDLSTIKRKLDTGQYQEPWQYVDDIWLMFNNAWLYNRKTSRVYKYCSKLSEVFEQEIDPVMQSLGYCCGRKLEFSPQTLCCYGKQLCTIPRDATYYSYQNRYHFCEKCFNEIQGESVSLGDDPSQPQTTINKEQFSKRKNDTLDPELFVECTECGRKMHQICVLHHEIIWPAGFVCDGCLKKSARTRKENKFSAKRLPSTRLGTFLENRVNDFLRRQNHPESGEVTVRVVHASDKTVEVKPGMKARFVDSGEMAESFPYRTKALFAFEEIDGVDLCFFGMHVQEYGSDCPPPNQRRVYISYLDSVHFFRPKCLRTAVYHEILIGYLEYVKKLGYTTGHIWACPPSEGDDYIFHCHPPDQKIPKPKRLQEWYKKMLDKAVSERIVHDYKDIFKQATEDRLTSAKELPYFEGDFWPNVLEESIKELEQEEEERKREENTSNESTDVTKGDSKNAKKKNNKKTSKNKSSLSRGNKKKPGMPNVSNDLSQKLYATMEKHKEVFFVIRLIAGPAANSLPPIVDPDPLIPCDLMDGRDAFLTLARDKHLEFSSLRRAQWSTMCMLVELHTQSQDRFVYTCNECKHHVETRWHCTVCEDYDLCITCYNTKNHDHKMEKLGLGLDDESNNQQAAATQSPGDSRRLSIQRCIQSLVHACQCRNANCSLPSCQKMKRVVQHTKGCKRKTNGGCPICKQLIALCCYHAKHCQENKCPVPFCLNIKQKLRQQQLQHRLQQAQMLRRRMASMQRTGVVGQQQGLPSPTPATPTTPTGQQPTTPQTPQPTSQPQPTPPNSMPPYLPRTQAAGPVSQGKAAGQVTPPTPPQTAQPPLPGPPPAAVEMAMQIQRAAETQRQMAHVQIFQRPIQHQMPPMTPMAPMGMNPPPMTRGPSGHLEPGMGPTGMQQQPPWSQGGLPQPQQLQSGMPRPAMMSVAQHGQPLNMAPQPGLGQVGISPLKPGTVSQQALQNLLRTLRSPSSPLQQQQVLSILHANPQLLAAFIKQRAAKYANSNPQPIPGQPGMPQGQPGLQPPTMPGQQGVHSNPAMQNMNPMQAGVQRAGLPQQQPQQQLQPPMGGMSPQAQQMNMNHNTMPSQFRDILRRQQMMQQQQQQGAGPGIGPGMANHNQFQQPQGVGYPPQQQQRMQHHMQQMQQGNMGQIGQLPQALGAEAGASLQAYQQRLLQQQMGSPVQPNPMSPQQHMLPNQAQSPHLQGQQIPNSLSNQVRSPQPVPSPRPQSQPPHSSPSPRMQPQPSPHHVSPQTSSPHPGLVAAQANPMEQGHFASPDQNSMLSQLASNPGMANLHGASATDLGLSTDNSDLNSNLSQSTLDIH
Sequence (Q96SW2 whole entry partner): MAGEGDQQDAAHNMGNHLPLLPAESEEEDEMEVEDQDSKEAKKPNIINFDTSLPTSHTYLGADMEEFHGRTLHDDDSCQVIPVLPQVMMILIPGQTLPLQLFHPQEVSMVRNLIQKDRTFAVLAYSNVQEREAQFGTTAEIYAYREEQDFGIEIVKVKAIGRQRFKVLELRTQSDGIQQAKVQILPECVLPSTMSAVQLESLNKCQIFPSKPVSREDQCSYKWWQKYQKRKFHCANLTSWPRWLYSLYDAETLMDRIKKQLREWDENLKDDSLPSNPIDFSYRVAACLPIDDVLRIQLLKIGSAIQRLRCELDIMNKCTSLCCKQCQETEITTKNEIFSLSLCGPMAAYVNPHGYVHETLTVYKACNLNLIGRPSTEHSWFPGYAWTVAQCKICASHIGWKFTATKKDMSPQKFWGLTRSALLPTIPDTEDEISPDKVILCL
reported property: Activity

Quick one: give me Activity for each item below, same order please.
1. Cc1noc(C)c1-c1ccc2c(c1)nc([C@@H]1CCCC(=O)N1c1ccc(F)c(F)c1)n2C1CCN(C(=O)CCOCCNc2ccc3c(c2)C(=O)N(C2CCC(=O)NC2=O)C3=O)CC1 (stereo not given in full)
2. Cc1noc(C)c1-c1ccc2c(c1)nc([C@@H]1CCCC(=O)N1c1ccc(F)c(F)c1)n2C1CN(C2CN(c3ccc4c(c3)C(=O)N(C3CCC(=O)NC3=O)C4=O)C2)C1 (stereo not given in full)
3. Cc1noc(C)c1-c1ccc2c(c1)nc([C@@H]1CCCC(=O)N1c1ccc(F)c(F)c1)n2C1CCN(C2CCN(c3ccc4c(c3)C(=O)N(C3CCC(=O)NC3=O)C4=O)CC2)CC1 (stereo not given in full)
4. Cc1noc(C)c1-c1ccc2c(c1)nc([C@@H]1CCCC(=O)N1c1ccc(F)c(F)c1)n2C1CN(C2CN(c3cccc4c3C(=O)N(C3CCC(=O)NC3=O)C4=O)C2)C1 (stereo not given in full)
5. Cc1noc(C)c1-c1ccc2c(c1)nc([C@@H]1CCCC(=O)N1c1ccc(F)c(F)c1)n2C1CCN(C2CCN(c3cccc4c3C(=O)N(C3CCC(=O)NC3=O)C4=O)CC2)CC1 (stereo not given in full)
6. Cc1noc(C)c1-c1ccc2c(c1)nc([C@@H]1CCCC(=O)N1c1ccc(F)c(F)c1)n2C1CCN(C(=O)CCOCCNc2cccc3c2C(=O)N(C2CCC(=O)NC2=O)C3=O)CC1 (stereo not given in full)
7. Cc1noc(C)c1-c1ccc2c(c1)nc([C@@H]1CCCC(=O)N1c1ccc(F)c(F)c1)n2C1CCN(C(=O)CCOCCOCCNc2cccc3c2C(=O)N(C2CCC(=O)NC2=O)C3=O)CC1 (stereo not given in full)
8. Cc1noc(C)c1-c1ccc2c(c1)nc([C@@H]1CCCC(=O)N1c1ccc(F)c(F)c1)n2C1CN(C2CCN(c3cccc4c3C(=O)N(C3CCC(=O)NC3=O)C4=O)CC2)C1 (stereo not given in full)

1: < 1%; 2: < 1%; 3: 9%; 4: 3%; 5: 4%; 6: < 1%; 7: < 1%; 8: < 1%

Dear reader, for each entry below, please note its Activity.
1. Cc1noc(C)c1-c1ccc2c(c1)nc([C@@H]1CCCC(=O)N1c1ccc(F)c(F)c1)n2C1CCN(C(=O)CCOCCOCCOCCOCCNc2ccc3c(c2)C(=O)N(C2CCC(=O)NC2=O)C3=O)CC1 (stereo not given in full)
2. Cc1noc(C)c1-c1ccc2c(c1)nc([C@@H]1CCCC(=O)N1c1ccc(F)c(F)c1)n2C1CCN(C(=O)CCOCCOCCNc2ccc3c(c2)C(=O)N(C2CCC(=O)NC2=O)C3=O)CC1 (stereo not given in full)

["< 1%", "< 1%"]

====

biological target: Protein cereblon/Histone acetyltransferase p300 (Homo sapiens, UniProt Q09472+Q96SW2); test: PROTAC activity at CRBN/p300 in human SK-HEP1 cells assessed as induction of p300 protein degradation at 1 uM incubated for 24 hrs relative to control; type: cell-based
reported property: Activity (%)
One number for each entry, in %.

Parameter requested: Activity. Apply to each item below.
1. Cc1noc(C)c1-c1ccc2c(c1)nc([C@@H]1CCCC(=O)N1c1ccc(F)c(F)c1)n2C1CCN(C(=O)CCOCCOCCOCCOCCNc2cccc3c2C(=O)N(C2CCC(=O)NC2=O)C3=O)CC1 (stereo not given in full)
2. Cc1noc(C)c1-c1ccc2c(c1)nc([C@@H]1CCCC(=O)N1c1ccc(F)c(F)c1)n2C1CCN(C(=O)CNc2ccc3c(c2)C(=O)N(C2CCC(=O)NC2=O)C3=O)CC1 (stereo not given in full)
3. Cc1noc(C)c1-c1ccc2c(c1)nc([C@@H]1CCCC(=O)N1c1ccc(F)c(F)c1)n2C1CCN(C(=O)CCOCCOCCOCCOCCNc2ccc3c(c2)C(=O)N(C2CCC(=O)NC2=O)C3=O)CC1 (stereo not given in full)
4. Cc1noc(C)c1-c1ccc2c(c1)nc([C@@H]1CCCC(=O)N1c1ccc(F)c(F)c1)n2C1CCN(c2cccc3c2C(=O)N(C2CCC(=O)NC2=O)C3=O)CC1 (stereo not given in full)

1. 49
2. 3
3. 28
4. 39

Each of the following entries comes with a recorded value; kindly state Activity for each.
1. Cc1noc(C)c1-c1ccc2c(c1)nc([C@@H]1CCCC(=O)N1c1ccc(F)c(F)c1)n2C1CCN(C2CN(c3ccc4c(c3)C(=O)N(C3CCC(=O)NC3=O)C4=O)C2)CC1 (stereo not given in full)
2. Cc1noc(C)c1-c1ccc2c(c1)nc([C@@H]1CCCC(=O)N1c1ccc(F)c(F)c1)n2C1CN(C2CCN(c3cccc4c3C(=O)N(C3CCC(=O)NC3=O)C4=O)CC2)C1 (stereo not given in full)
3. Cc1noc(C)c1-c1ccc2c(c1)nc([C@@H]1CCCC(=O)N1c1ccc(F)c(F)c1)n2C1CN(C2CN(c3cccc4c3C(=O)N(C3CCC(=O)NC3=O)C4=O)C2)C1 (stereo not given in full)

1: 47; 2: 28; 3: 23

I would be grateful if you could provide Activity for each of the following entries.
1. Cc1noc(C)c1-c1ccc2c(c1)nc([C@@H]1CCCC(=O)N1c1ccc(F)c(F)c1)n2C1CCN(C(=O)CCOCCOCCNc2cccc3c2C(=O)N(C2CCC(=O)NC2=O)C3=O)CC1 (stereo not given in full)
2. Cc1noc(C)c1-c1ccc2c(c1)nc([C@@H]1CCCC(=O)N1c1ccc(F)c(F)c1)n2C1CCN(C2CN(c3cccc4c3C(=O)N(C3CCC(=O)NC3=O)C4=O)C2)CC1 (stereo not given in full)

1: 25; 2: 4

Tell me Activity reported for Cc1noc(C)c1-c1ccc2c(c1)nc([C@@H]1CCCC(=O)N1c1ccc(F)c(F)c1)n2C1CCN(C(=O)CCOCCNc2cccc3c2C(=O)N(C2CCC(=O)NC2=O)C3=O)CC1 (stereo not given in full)
15

====

target: Protein cereblon/Histone acetyltransferase p300 (Homo sapiens, UniProt Q09472+Q96SW2); experiment: PROTAC activity at CRBN/p300 in human SK-HEP1 cells assessed as induction of p300 protein degradation at 0.1 uM incubated for 24 hrs relative to control; assay type: cell-based
Can you tell me Activity for the items I'm about to list?

Observe how each entry below is paired with its result.
Cc1noc(C)c1-c1ccc2c(c1)nc([C@@H]1CCCC(=O)N1c1ccc(F)c(F)c1)n2C1CN(C2CCN(c3cccc4c3C(=O)N(C3CCC(=O)NC3=O)C4=O)CC2)C1 (stereo partly specified)
8%
Cc1noc(C)c1-c1ccc2c(c1)nc([C@@H]1CCCC(=O)N1c1ccc(F)c(F)c1)n2C1CCN(C(=O)CCOCCOCCOCCOCCNc2ccc3c(c2)C(=O)N(C2CCC(=O)NC2=O)C3=O)CC1 (stereo partly specified)
< 1%

Would you be so kind as to report Activity for each listed record?
1. CNC(=O)N1CCc2c(c(N3CCCc4cc(-c5cnn(C)c5)c(C(F)F)cc43)nn2C2CCN(C(=O)CCOCCOCCOCCOCCNc3ccc4c(c3)C(=O)N(C3CCC(=O)NC3=O)C4=O)CC2)C1 (stereo unspecified)
2. Cc1noc(C)c1-c1ccc2c(c1)nc([C@@H]1CCCC(=O)N1c1ccc(F)c(F)c1)n2C1CN(C2CN(c3ccc4c(c3)C(=O)N(C3CCC(=O)NC3=O)C4=O)C2)C1 (stereo partly specified)
3. Cc1noc(C)c1-c1ccc2c(c1)nc([C@@H]1CCCC(=O)N1c1ccc(F)c(F)c1)n2C1CCN(C(=O)CCOCCNc2ccc3c(c2)C(=O)N(C2CCC(=O)NC2=O)C3=O)CC1 (stereo partly specified)
4. Cc1noc(C)c1-c1ccc2c(c1)nc([C@@H]1CCCC(=O)N1c1ccc(F)c(F)c1)n2C1CCN(C(=O)CCOCCOCCNc2cccc3c2C(=O)N(C2CCC(=O)NC2=O)C3=O)CC1 (stereo partly specified)
5. Cc1noc(C)c1-c1ccc2c(c1)nc([C@@H]1CCCC(=O)N1c1ccc(F)c(F)c1)n2C1CCN(c2ccc3c(c2)C(=O)N(C2CCC(=O)NC2=O)C3=O)CC1 (stereo partly specified)
6. Cc1noc(C)c1-c1ccc2c(c1)nc([C@@H]1CCCC(=O)N1c1ccc(F)c(F)c1)n2C1CCN(C(=O)CCOCCOCCOCCOCCNc2cccc3c2C(=O)N(C2CCC(=O)NC2=O)C3=O)CC1 (stereo partly specified)
7. Cc1noc(C)c1-c1ccc2c(c1)nc([C@@H]1CCCC(=O)N1c1ccc(F)c(F)c1)n2C1CCN(c2cccc3c2C(=O)N(C2CCC(=O)NC2=O)C3=O)CC1 (stereo partly specified)

1. 7%
2. < 1%
3. < 1%
4. 2%
5. 9%
6. < 1%
7. < 1%

Required: Activity, one value per compound below.
1. Cc1noc(C)c1-c1ccc2c(c1)nc([C@@H]1CCCC(=O)N1c1ccc(F)c(F)c1)n2C1CN(C2CCN(c3ccc4c(c3)C(=O)N(C3CCC(=O)NC3=O)C4=O)CC2)C1 (stereo partly specified)
2. Cc1noc(C)c1-c1ccc2c(c1)nc([C@@H]1CCCC(=O)N1c1ccc(F)c(F)c1)n2C1CCN(C(=O)CCOCCOCCOCCNc2cccc3c2C(=O)N(C2CCC(=O)NC2=O)C3=O)CC1 (stereo partly specified)
3. Cc1noc(C)c1-c1ccc2c(c1)nc([C@@H]1CCCC(=O)N1c1ccc(F)c(F)c1)n2C1CCN(C(=O)CNc2ccc3c(c2)C(=O)N(C2CCC(=O)NC2=O)C3=O)CC1 (stereo partly specified)
4. Cc1noc(C)c1-c1ccc2c(c1)nc([C@@H]1CCCC(=O)N1c1ccc(F)c(F)c1)n2C1CCN(C(=O)CCOCCOCCOCCNc2ccc3c(c2)C(=O)N(C2CCC(=O)NC2=O)C3=O)CC1 (stereo partly specified)

1: < 1%; 2: < 1%; 3: 2%; 4: < 1%

Lab note: each compound below needs its Activity filled in.
1. Cc1noc(C)c1-c1ccc2c(c1)nc([C@@H]1CCCC(=O)N1c1ccc(F)c(F)c1)n2C1CCN(C2CN(c3ccc4c(c3)C(=O)N(C3CCC(=O)NC3=O)C4=O)C2)CC1 (stereo partly specified)
2. Cc1noc(C)c1-c1ccc2c(c1)nc([C@@H]1CCCC(=O)N1c1ccc(F)c(F)c1)n2C1CCN(C(=O)CNc2cccc3c2C(=O)N(C2CCC(=O)NC2=O)C3=O)CC1 (stereo partly specified)
3. Cc1noc(C)c1-c1ccc2c(c1)nc([C@@H]1CCCC(=O)N1c1ccc(F)c(F)c1)n2C1CCN(C2CN(c3cccc4c3C(=O)N(C3CCC(=O)NC3=O)C4=O)C2)CC1 (stereo partly specified)
4. Cc1noc(C)c1-c1ccc2c(c1)nc([C@@H]1CCCC(=O)N1c1ccc(F)c(F)c1)n2C1CCN(C(=O)CCOCCOCCNc2ccc3c(c2)C(=O)N(C2CCC(=O)NC2=O)C3=O)CC1 (stereo partly specified)
5. Cc1noc(C)c1-c1ccc2c(c1)nc([C@@H]1CCCC(=O)N1c1ccc(F)c(F)c1)n2C1CCN(C(=O)CCOCCNc2cccc3c2C(=O)N(C2CCC(=O)NC2=O)C3=O)CC1 (stereo partly specified)
6. Cc1noc(C)c1-c1ccc2c(c1)nc([C@@H]1CCCC(=O)N1c1ccc(F)c(F)c1)n2C1CCN(C2CCN(c3cccc4c3C(=O)N(C3CCC(=O)NC3=O)C4=O)CC2)CC1 (stereo partly specified)
7. Cc1noc(C)c1-c1ccc2c(c1)nc([C@@H]1CCCC(=O)N1c1ccc(F)c(F)c1)n2C1CN(C2CN(c3cccc4c3C(=O)N(C3CCC(=O)NC3=O)C4=O)C2)C1 (stereo partly specified)

1: 27%; 2: < 1%; 3: < 1%; 4: < 1%; 5: < 1%; 6: 6%; 7: < 1%

Give the reported value of Activity for this record: Cc1noc(C)c1-c1ccc2c(c1)nc([C@@H]1CCCC(=O)N1c1ccc(F)c(F)c1)n2C1CCN(C2CCN(c3ccc4c(c3)C(=O)N(C3CCC(=O)NC3=O)C4=O)CC2)CC1 (stereo partly specified)
5%
